- experimental-system: D(1A) dopamine receptor (Homo sapiens)
- procedure-details: Antagonist activity at dopamine D1 receptor transfected in mouse L(tk-) cells assessed as inhibition of SKF-induced stimulation of forskolin-induced cAMP levels
- Type: functional, cell-based
The source made the active and inactive calls. The calls are words filed in the database; no cut-off is given here.

{"compound": "CC(C)[C@H](NC(=O)[C@@H]1C=C2c3cccc4[nH]cc(c34)C[C@H]2N(C)C1)C(=O)N[C@@H](CCC1CCCCC1)C(=O)N1CCCC(C(N)=O)C1 (some centres undefined)", "experimental-system": "D(1A) dopamine receptor (Homo sapiens)", "Activity": "inactive"}
{"compound": "CN1C[C@H](C(=O)N[C@@H](CCC2CCCCC2)C(=O)N[C@@H](Cc2ccc(F)cc2)C(=O)N2CCC[C@H]2C(N)=O)C=C2c3cccc4[nH]cc(c34)C[C@H]21", "experimental-system": "D(1A) dopamine receptor (Homo sapiens)", "Activity": "inactive"}
{"compound": "CC(C)[C@H](NC(=O)[C@H]1C=C2c3cccc4[nH]cc(c34)C[C@H]2N(C)C1)C(=O)N[C@@H](Cc1ccc([N+](=O)[O-])cc1)C(=O)N1CCC[C@H]1C(N)=O", "experimental-system": "D(1A) dopamine receptor (Homo sapiens)", "Activity": "inactive"}
{"compound": "CN1C[C@H](C(=O)N[C@@H](Cc2ccc([N+](=O)[O-])cc2)C(=O)N[C@@H](CCC2CCCCC2)C(=O)N2CCCC(C(N)=O)C2)C=C2c3cccc4[nH]cc(c34)C[C@H]21 (some centres undefined)", "experimental-system": "D(1A) dopamine receptor (Homo sapiens)", "Activity": "inactive"}

----------
- experimental-system: D(1A) dopamine receptor (Homo sapiens) (UniProt P21728)
- Sequence (P21728 whole entry): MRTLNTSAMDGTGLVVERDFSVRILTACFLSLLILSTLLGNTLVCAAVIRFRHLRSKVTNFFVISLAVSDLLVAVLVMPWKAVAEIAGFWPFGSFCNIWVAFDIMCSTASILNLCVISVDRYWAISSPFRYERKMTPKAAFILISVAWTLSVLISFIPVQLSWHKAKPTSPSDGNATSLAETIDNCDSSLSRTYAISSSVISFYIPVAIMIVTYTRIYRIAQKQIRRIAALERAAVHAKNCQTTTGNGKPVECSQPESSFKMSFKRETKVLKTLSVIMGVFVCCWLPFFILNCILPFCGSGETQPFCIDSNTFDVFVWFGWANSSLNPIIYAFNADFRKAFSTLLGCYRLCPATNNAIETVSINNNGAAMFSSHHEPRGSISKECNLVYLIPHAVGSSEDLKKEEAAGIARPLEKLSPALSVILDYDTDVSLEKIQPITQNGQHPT
- procedure-details: Agonist activity at dopamine D1 receptor transfected in mouse L(tk-) cells assessed as stimulation of cAMP levels
- Type: functional, cell-based
Active and inactive are the calls of the source. The rule behind the calls is not given here.
readout-type: Activity

Solved entries (count: 5):
{"molecule": "CC(C)[C@H](NC(=O)[C@@H]1C=C2c3cccc4[nH]cc(c34)C[C@H]2N(C)C1)C(=O)N[C@@H](Cc1ccc(F)cc1)C(=O)N1CCC[C@H]1C(N)=O", "Activity": "Active"}
{"molecule": "CC(C)[C@H](NC(=O)[C@@H]1C=C2c3cccc4[nH]cc(c34)C[C@H]2N(C)C1)C(=O)N[C@@H](CCC1CCCCC1)C(=O)N1c2ccccc2C[C@H]1C(N)=O", "Activity": "Active"}
{"molecule": "CN1C[C@H](C(=O)N[C@@H](Cc2ccc([N+](=O)[O-])cc2)C(=O)N[C@@H](Cc2ccc(F)cc2)C(=O)N2CCCC(C(N)=O)C2)C=C2c3cccc4[nH]cc(c34)C[C@H]21 (stereo not given in full)", "Activity": "Active"}
{"molecule": "CC(C)[C@H](NC(=O)[C@@H]1C=C2c3cccc4[nH]cc(c34)C[C@H]2N(C)C1)C(=O)N[C@@H](Cc1ccc([N+](=O)[O-])cc1)C(=O)N1CCC[C@H]1C(N)=O", "Activity": "Active"}
{"molecule": "CC(C)[C@H](NC(=O)[C@H](CCC1CCCCC1)NC(=O)[C@@H]1C=C2c3cccc4[nH]cc(c34)C[C@H]2N(C)C1)C(=O)N1CCC[C@H]1C(N)=O", "Activity": "Active"}

Below are some molecules; for each one, tell me its Activity.
1. CC(C)[C@H](NC(=O)[C@H]1C=C2c3cccc4[nH]cc(c34)C[C@H]2N(C)C1)C(=O)N[C@@H](Cc1ccc([N+](=O)[O-])cc1)C(=O)N1CCC[C@H]1C(N)=O
2. CC(C)[C@H](NC(=O)[C@@H]1C=C2c3cccc4[nH]cc(c34)C[C@H]2N(C)C1)C(=O)N[C@@H](CCC1CCCCC1)C(=O)N1CCCC(C(N)=O)C1 (stereo not given in full)
3. CN1C[C@H](C(=O)N[C@@H](Cc2ccc([N+](=O)[O-])cc2)C(=O)N[C@@H](CCC2CCCCC2)C(=O)N2CCCC(C(N)=O)C2)C=C2c3cccc4[nH]cc(c34)C[C@H]21 (stereo not given in full)
4. CN1C[C@H](C(=O)N[C@@H](CCC2CCCCC2)C(=O)N[C@@H](Cc2ccc(F)cc2)C(=O)N2CCC[C@H]2C(N)=O)C=C2c3cccc4[nH]cc(c34)C[C@H]21
5. CC(C)[C@H](NC(=O)[C@H](Cc1ccc([N+](=O)[O-])cc1)NC(=O)[C@@H]1C=C2c3cccc4[nH]cc(c34)C[C@H]2N(C)C1)C(=O)N1c2ccccc2C[C@H]1C(N)=O

Key:
Active
Active
Active
Active
Active

----------
As an illustration, consider measured pKd for compounds on Adenosine receptor A2a (Homo sapiens).
Sequence (P29274 whole entry): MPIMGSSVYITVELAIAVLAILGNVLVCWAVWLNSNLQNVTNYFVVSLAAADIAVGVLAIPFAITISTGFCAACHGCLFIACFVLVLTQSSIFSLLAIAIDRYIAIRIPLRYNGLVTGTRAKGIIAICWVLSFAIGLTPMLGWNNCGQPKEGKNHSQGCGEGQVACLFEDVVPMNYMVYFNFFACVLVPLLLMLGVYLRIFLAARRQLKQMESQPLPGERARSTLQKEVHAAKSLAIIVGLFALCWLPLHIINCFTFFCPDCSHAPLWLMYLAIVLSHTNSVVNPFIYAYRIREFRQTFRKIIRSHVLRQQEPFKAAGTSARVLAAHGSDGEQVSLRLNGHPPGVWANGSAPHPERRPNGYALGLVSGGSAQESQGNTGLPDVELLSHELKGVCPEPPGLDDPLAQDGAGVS
Answers are plain numbers, as −log10 of the molar value.

Solved entries (count: 2):
{"compound": "CN1C[C@H](C(=O)N[C@@H](CCC2CCCCC2)C(=O)N[C@@H](Cc2ccc(F)cc2)C(=O)N2CCC[C@H]2C(N)=O)C=C2c3cccc4[nH]cc(c34)C[C@H]21", "experimental-system": "Adenosine receptor A2a (Homo sapiens)", "pKd": 4.48}
{"compound": "CC(C)[C@H](NC(=O)[C@@H]1C=C2c3cccc4[nH]cc(c34)C[C@H]2N(C)C1)C(=O)N[C@@H](CCC1CCCCC1)C(=O)N1CCCC(C(N)=O)C1 (stereo partly drawn)", "experimental-system": "Adenosine receptor A2a (Homo sapiens)", "pKd": 4.30}

Please find the next compound below.
Entry under test: `CC(C)[C@H](NC(=O)[C@@H]1C=C2c3cccc4[nH]cc(c34)C[C@H]2N(C)C1)C(=O)N[C@@H](CCC1CCCCC1)C(=O)N1c2ccccc2C[C@H]1C(N)=O` . Its pKd was 4.60

----------
- experimental-system: UniProtKB P30542
- Sequence (P30542 whole entry): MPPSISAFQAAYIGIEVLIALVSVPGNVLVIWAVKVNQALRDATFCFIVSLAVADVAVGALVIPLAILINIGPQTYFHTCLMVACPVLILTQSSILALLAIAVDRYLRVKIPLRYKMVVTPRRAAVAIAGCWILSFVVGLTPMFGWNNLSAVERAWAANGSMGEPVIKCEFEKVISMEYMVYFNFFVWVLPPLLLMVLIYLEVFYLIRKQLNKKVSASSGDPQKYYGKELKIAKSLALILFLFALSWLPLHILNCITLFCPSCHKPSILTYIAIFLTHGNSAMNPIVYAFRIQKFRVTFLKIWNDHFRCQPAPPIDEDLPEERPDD
- procedure-details: Agonist activity at adenosine A1 receptor transfected in mouse L(tk-) cells assessed as decrease in forskolin-induced cAMP levels
- Type: functional, cell-based
Calls of active or inactive are those of the source. No cut-off for these calls is given here.
readout-type: Activity

Solved entries (count: 6):
{"compound": "CC(C)[C@H](NC(=O)[C@H]1C=C2c3cccc4[nH]cc(c34)C[C@H]2N(C)C1)C(=O)N[C@@H](Cc1ccc([N+](=O)[O-])cc1)C(=O)N1CCC[C@H]1C(N)=O", "Activity": "inactive"}
{"compound": "CC(C)[C@H](NC(=O)[C@@H]1C=C2c3cccc4[nH]cc(c34)C[C@H]2N(C)C1)C(=O)N[C@@H](CCC1CCCCC1)C(=O)N1c2ccccc2C[C@H]1C(N)=O", "Activity": "inactive"}
{"compound": "CC(C)[C@H](NC(=O)[C@@H]1C=C2c3cccc4[nH]cc(c34)C[C@H]2N(C)C1)C(=O)N[C@@H](Cc1ccc([N+](=O)[O-])cc1)C(=O)N1CCC[C@H]1C(N)=O", "Activity": "inactive"}
{"compound": "CN1C[C@H](C(=O)N[C@@H](CCC2CCCCC2)C(=O)N[C@@H](Cc2ccc(F)cc2)C(=O)N2CCC[C@H]2C(N)=O)C=C2c3cccc4[nH]cc(c34)C[C@H]21", "Activity": "inactive"}
{"compound": "CC(C)[C@H](NC(=O)[C@@H]1C=C2c3cccc4[nH]cc(c34)C[C@H]2N(C)C1)C(=O)N[C@@H](CCC1CCCCC1)C(=O)N1CCCC(C(N)=O)C1 (stereo not given in full)", "Activity": "inactive"}
{"compound": "CN1C[C@H](C(=O)N[C@@H](Cc2ccc([N+](=O)[O-])cc2)C(=O)N[C@@H](CCC2CCCCC2)C(=O)N2CCCC(C(N)=O)C2)C=C2c3cccc4[nH]cc(c34)C[C@H]21 (stereo not given in full)", "Activity": "inactive"}

Below are some compounds; for each one, tell me its Activity.
1. CC(C)[C@H](NC(=O)[C@H](Cc1ccc([N+](=O)[O-])cc1)NC(=O)[C@@H]1C=C2c3cccc4[nH]cc(c34)C[C@H]2N(C)C1)C(=O)N1c2ccccc2C[C@H]1C(N)=O
2. CN1C[C@H](C(=O)N[C@@H](Cc2ccc([N+](=O)[O-])cc2)C(=O)N[C@@H](Cc2ccc(F)cc2)C(=O)N2CCCC(C(N)=O)C2)C=C2c3cccc4[nH]cc(c34)C[C@H]21 (stereo not given in full)

Key:
["inactive", "inactive"]

Below are some compounds; for each one, tell me its Activity.
1. CC(C)[C@H](NC(=O)[C@@H]1C=C2c3cccc4[nH]cc(c34)C[C@H]2N(C)C1)C(=O)N[C@@H](Cc1ccc(F)cc1)C(=O)N1CCC[C@H]1C(N)=O
2. CC(C)[C@H](NC(=O)[C@H](CCC1CCCCC1)NC(=O)[C@@H]1C=C2c3cccc4[nH]cc(c34)C[C@H]2N(C)C1)C(=O)N1CCC[C@H]1C(N)=O

Key:
inactive
inactive

----------
- experimental-system: Adenosine receptor A2a (Homo sapiens)
- procedure-details: Agonist activity at adenosine A2A receptor in SH-SY5Y cells assessed as CGS-induced intracellular cAMP production at 50 uM
- Assay type: functional, cell-based
Activity calls are given as the source filed them. The calls are words filed in the database; no cut-off is given here.

{"molecule": "CN1C[C@H](C(=O)N[C@@H](CCC2CCCCC2)C(=O)N[C@@H](Cc2ccc(F)cc2)C(=O)N2CCC[C@H]2C(N)=O)C=C2c3cccc4[nH]cc(c34)C[C@H]21", "Activity": "inactive"}
{"molecule": "CC(C)[C@H](NC(=O)[C@H](CCC1CCCCC1)NC(=O)[C@@H]1C=C2c3cccc4[nH]cc(c34)C[C@H]2N(C)C1)C(=O)N1CCC[C@H]1C(N)=O", "Activity": "inactive"}
{"molecule": "CC(C)[C@H](NC(=O)[C@@H]1C=C2c3cccc4[nH]cc(c34)C[C@H]2N(C)C1)C(=O)N[C@@H](CCC1CCCCC1)C(=O)N1CCCC(C(N)=O)C1 (stereo partly drawn)", "Activity": "inactive"}
